target-entity: recombinant human TFPI (tissue factor pathway inhibitor) (human, UniProt P10646 29-304)
assay-remarks: cell-based or functional assay
measurement-kind: % of Normalized, TF/FVIIa/FX complex assay, Ab 6.25 nM (%)
Entry rule: numbers only, all in %.

Solved cases (2 shown):
binder	measured-result
clone A67 (antibody, V domains shown) VH: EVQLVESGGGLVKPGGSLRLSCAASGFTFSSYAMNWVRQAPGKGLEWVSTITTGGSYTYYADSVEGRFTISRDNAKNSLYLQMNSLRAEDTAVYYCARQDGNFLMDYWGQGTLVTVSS VL: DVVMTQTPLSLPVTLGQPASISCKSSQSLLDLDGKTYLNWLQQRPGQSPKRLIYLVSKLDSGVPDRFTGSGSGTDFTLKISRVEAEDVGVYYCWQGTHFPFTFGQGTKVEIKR	21.3
clone 3241 (antibody, V domains shown, scFv on yeast at selection; human IgG4/kappa IgG as purified; also called No. 3241 antibody) VH: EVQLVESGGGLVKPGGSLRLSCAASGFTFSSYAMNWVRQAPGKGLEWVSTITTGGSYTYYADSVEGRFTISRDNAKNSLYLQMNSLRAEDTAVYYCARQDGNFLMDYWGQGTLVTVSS VL: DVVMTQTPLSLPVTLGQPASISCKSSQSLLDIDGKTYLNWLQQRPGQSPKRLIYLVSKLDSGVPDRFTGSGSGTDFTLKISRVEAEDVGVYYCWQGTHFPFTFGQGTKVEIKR	21.5

Entry clone 1023 (antibody, V domains shown, scFv on yeast at selection; human IgG4/kappa IgG as purified) VH: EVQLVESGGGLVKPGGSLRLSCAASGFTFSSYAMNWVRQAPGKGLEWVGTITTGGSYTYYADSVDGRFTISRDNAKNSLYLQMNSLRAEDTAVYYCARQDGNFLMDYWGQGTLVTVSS VL: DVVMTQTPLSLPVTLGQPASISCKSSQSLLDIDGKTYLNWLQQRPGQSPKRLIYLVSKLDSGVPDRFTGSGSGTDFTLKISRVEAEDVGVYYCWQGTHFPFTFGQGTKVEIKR has what % of Normalized, TF/FVIIa/FX complex assay, Ab 6.25 nM?
20.2
